System: hiPSC-CMs (iCell-Cardiomyocytes^2)
Setup Conditions: 1 µM, 72h
Label scheme for FPD (field-potential duration), % change from baseline: lower than 10% is not satisfied, 10% and above is satisfied.

Compound: CC(C)(Sc1cc(C(C)(C)C)c(O)c(C(C)(C)C)c1)Sc1cc(C(C)(C)C)c(O)c(C(C)(C)C)c1
Assigned Label: not satisfied
//
Compound: COc1nc(N)nc2c1ncn2[C@@H]1O[C@H](COP(=O)(N[C@@H](C)C(=O)OCC(C)(C)C)Oc2cccc3ccccc23)[C@@H](O)[C@@]1(C)O (some centres unmarked)
Assigned Label: not satisfied
//
Compound: C#Cc1cccc(Nc2ncnc3cc(OCCOC)c(OCCOC)cc23)c1
Assigned Label: satisfied
//
Compound: O=C(O)COCCN1CCN(C(c2ccccc2)c2ccc(Cl)cc2)CC1 (centres unmarked)
Assigned Label: satisfied
//
Compound: Cc1cn(-c2cc(NC(=O)c3ccc(C)c(Nc4nccc(-c5cccnc5)n4)c3)cc(C(F)(F)F)c2)cn1
Assigned Label: satisfied
//
Compound: CC1(C)S[C@@H]2[C@H](NC(=O)[C@H](N)c3ccc(O)cc3)C(=O)N2[C@H]1C(=O)O
Assigned Label: not satisfied
//
Compound: C[C@H](CS)C(=O)N1CCC[C@H]1C(=O)O
Assigned Label: satisfied
//
Compound: N=C(N)c1ccc(OCCCCCOc2ccc(C(=N)N)cc2)cc1
Assigned Label: satisfied
